TEST_SYSTEM: 20S proteasome (chymotrypsin-like activity) (Homo sapiens, UniProt P28074)
Sequence (P28074 60-263): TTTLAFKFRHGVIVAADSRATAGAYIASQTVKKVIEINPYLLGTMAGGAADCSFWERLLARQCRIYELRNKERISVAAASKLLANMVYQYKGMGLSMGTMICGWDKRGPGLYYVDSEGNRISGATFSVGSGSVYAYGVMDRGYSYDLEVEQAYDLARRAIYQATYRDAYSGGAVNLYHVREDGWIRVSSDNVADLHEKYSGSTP
pIC50: −log10 of the molar value.

{"SMILES_TEXT": "CC(C)=CC[C@]12Oc3cc(O)c([C@H]4C=C(C)C[C@H](c5ccc(O)cc5O)[C@H]4C(=O)c4ccc(O)cc4O)c(O)c3C(=O)[C@@]1(O)Oc1cc(O)ccc12", "pIC50": 5.40}
